This section presents compounds with their documented pIC50 values.
target: human PLK4 (Homo sapiens (Human)); assay: PLK4 inhibition assay (indirect ELISA); format: biochemical; settings: read-out: PLK4 IC50 Ranges
Sequence (O00444 1-391): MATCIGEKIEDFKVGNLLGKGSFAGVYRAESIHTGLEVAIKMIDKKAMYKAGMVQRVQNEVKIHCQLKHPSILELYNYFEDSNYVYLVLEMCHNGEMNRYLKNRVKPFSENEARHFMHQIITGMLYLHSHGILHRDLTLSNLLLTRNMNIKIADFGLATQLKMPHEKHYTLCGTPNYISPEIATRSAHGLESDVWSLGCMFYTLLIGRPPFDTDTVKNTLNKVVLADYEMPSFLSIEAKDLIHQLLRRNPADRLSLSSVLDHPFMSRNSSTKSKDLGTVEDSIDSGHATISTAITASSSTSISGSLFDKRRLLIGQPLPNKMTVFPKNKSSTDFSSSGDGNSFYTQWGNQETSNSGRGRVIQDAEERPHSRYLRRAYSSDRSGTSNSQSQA
pIC50: −log10 of the molar value. Structures can show the parent of a compound that is named as a salt.
measured.parameter: pIC50

- compound: "COc1ccc2c(c1)[C@]1(C[C@H]1c1ccc3c(-c4ccc(N5CCN(C6CCCCC6)CC5)cc4)n[nH]c3c1)C(=O)N2 [Example A193, 2,2,2-trifluoroacetate]"
  tested.system: "human PLK4 (Homo sapiens (Human))"
  assay.value: "> 7.00"
- compound: "CN1CCC(Cc2ccc(/C=C/c3n[nH]c4cc([C@@H]5C[C@@]56C(=O)Nc5ccccc56)ccc34)cc2)CC1 [Example A81, 2,2,2-trifluoroacetate salt]"
  tested.system: "human PLK4 (Homo sapiens (Human))"
  assay.value: "> 7.00"
- compound: "CCN(CC)Cc1ccc(/C=C/c2n[nH]c3cc([C@@H]4C[C@@]45C(=O)Nc4ccc(OC)cc45)ccc23)cc1 [Example A206, 2,2,2-trifluoroacetate]"
  tested.system: "human PLK4 (Homo sapiens (Human))"
  assay.value: "> 7.00"
